# SYSTEM: Kv1.6 (Homo sapiens, UniProt P17658)
# Construct: expressed in transfected cells
# Sequence (P17658 whole entry): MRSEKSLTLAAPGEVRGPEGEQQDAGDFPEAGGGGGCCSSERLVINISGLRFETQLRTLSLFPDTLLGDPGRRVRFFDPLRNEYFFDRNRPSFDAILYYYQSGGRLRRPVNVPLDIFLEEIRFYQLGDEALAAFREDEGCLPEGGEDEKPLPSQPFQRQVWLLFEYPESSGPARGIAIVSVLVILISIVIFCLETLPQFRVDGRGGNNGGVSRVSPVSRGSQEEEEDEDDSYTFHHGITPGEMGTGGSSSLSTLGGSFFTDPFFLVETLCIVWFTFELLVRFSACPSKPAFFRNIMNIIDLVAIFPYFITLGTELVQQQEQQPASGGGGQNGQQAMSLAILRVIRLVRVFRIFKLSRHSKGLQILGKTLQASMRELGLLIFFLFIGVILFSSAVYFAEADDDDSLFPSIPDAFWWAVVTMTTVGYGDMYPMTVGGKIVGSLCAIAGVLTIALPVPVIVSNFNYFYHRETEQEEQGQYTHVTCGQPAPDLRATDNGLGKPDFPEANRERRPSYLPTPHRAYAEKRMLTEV
# PROTOCOL SUMMARY: Patch clamp assay (QPatch), Kv1.6
# Format: cell-based
# CONDITION SUMMARY: ratio of IC50 Kv1.6/Kv1.3
RECORDED ENDPOINT: Selectivity Kv1.6/Kv1.3

SUBSTANCE	RECORDED ENDPOINT	VALUE MEASURED
H-[Nle]D[Nle]RC(1)SASVEC(2)KQKC(3)LKAIGSIFGKC(1)[Nle]NKKC(2)KC(3)YPR-OH [Peptide 97]	Selectivity Kv1.6/Kv1.3	>17800
H-PIE[Nle]RC(1)SASVEC(2)KQKC(3)LKAIGSIFGKC(1)[Nle]NKKC(2)KC(3)YPR-OH [Peptide 99]	Selectivity Kv1.6/Kv1.3	>7800
H-NMDMRC(1)SASVEC(2)KEKC(3)LKAIGSIFGKC(1)MNKKC(2)KC(3)YPR-NH2 [Peptide 32]	Selectivity Kv1.6/Kv1.3	>10800
Ac-LRC(1)SASVEC(2)KQKC(3)LKAIGSIFGKC(1)[Nle]NKKC(2)KC(3)YPR-NH2 [Peptide 114]	Selectivity Kv1.6/Kv1.3	7096
H-N[Nle]D[Nle]RC(1)SASVEC(2)KQKC(3)KAIGSIFGKC(1)[Nle]NKKC(2)KC(3)YPR-NH2 [Peptide 50]	Selectivity Kv1.6/Kv1.3	707
H-INVKCSLPQQCIKPCKDAGMRFGKCMNKKCRCYS-OH [Moka1, reference compound]	Selectivity Kv1.6/Kv1.3	>300
H-QMDMRC(1)SASVEC(2)KQKC(3)LKAIGSIFGKC(1)MNKKC(2)KC(3)YPR-OH [Peptide 1]	Selectivity Kv1.6/Kv1.3	>7900

====

# SYSTEM: Kv1.6 (Homo sapiens, UniProt P17658)
# Construct: expressed in transfected cells
# PROTOCOL SUMMARY: Patch clamp assay (QPatch), Kv1.6
# Format: cell-based
# CONDITION SUMMARY: ratio of IC50 Kv1.6/Kv1.3
# label = satisfied if Selectivity Kv1.6/Kv1.3 >= 3000 else not satisfied

SUBSTANCE	SYSTEM	LABEL
H-NMDMRC(1)SASVEC(2)KQKC(3)LAAIGSIFGKC(1)MNKKC(2)KC(3)YPR-NH2 [Peptide 53]	Kv1.6 (Homo sapiens, UniProt P17658)	satisfied
H-S[Nle]D[Nle]RC(1)SASVEC(2)AQSC(3)LKAIGSIFGKC(1)MNKKC(2)KC(3)YPR-NH2 [Peptide 81]	Kv1.6 (Homo sapiens, UniProt P17658)	satisfied
Ac-SKC(1)SASVEC(2)KQKC(3)LKAIGSIFGKC(1)[Nle]NKKC(2)KC(3)YPR-NH2 [Peptide 113]	Kv1.6 (Homo sapiens, UniProt P17658)	not satisfied
H-N[Nle]S[Nle]RC(1)SASVEC(2)KQKC(3)LKAIGSIFGKC(1)[Nle]NKKC(2)KC(3)YPR-NH2 [Peptide 47]	Kv1.6 (Homo sapiens, UniProt P17658)	satisfied
H-NMDMRC(1)SASVEC(2)KQKC(3)LKAIRSIFGKC(1)MNKKC(2)KC(3)YPR-NH2 [Peptide 22]	Kv1.6 (Homo sapiens, UniProt P17658)	not satisfied
H-NMDMRC(1)SASVQC(2)KQKC(3)LKAIGSIFGKC(1)MNKKC(2)KC(3)YPR-NH2 [Peptide 29]	Kv1.6 (Homo sapiens, UniProt P17658)	not satisfied
H-S[Nle]D[Nle]RC(1)SASVEC(2)KQKC(3)LKAIGSIFGKC(1)MNKKC(2)KC(3)[F(4-NH2)]PR-NH2 [Peptide 72]	Kv1.6 (Homo sapiens, UniProt P17658)	satisfied
Ac-C(1)SASVEC(2)KQKC(3)LKAIGSIFGKC(1)[Nle]NKKC(2)KC(3)YPR-NH2 [Peptide 109]	Kv1.6 (Homo sapiens, UniProt P17658)	satisfied
H-NMDMRC(1)SASVEC(2)KQKC(3)LKAIGSIFGKC(1)MNGKC(2)KC(3)YPR-NH2 [Peptide 37]	Kv1.6 (Homo sapiens, UniProt P17658)	satisfied
H-NMDMRC(1)SASVEC(2)KQKC(3)LKAIGSIFGKC(1)[Nle]NKKC(2)KC(3)YPR-NH2 [Peptide 17]	Kv1.6 (Homo sapiens, UniProt P17658)	satisfied
H-MDMRC(1)SASVEC(2)KQKC(3)LKAIGSIFGKC(1)MNKKC(2)KC(3)YPR-OH [Peptide 6]	Kv1.6 (Homo sapiens, UniProt P17658)	satisfied
H-NMDMRC(1)SASVEC(2)KQKC(3)LKAIGSIFGKC(1)MNKKC(2)HC(3)YPR-NH2 [Peptide 38]	Kv1.6 (Homo sapiens, UniProt P17658)	satisfied
H-N[Nle]D[Nle]RC(1)SASVEC(2)KKKC(3)LKAIGSIFGKC(1)[Nle]NKKC(2)KC(3)YPR-NH2 [Peptide 46]	Kv1.6 (Homo sapiens, UniProt P17658)	satisfied

The measurements presented in this section are drawn from patent US20260325605A1.
